Entry source: ChEMBL document CHEMBL4330057

- measurement-description: Drug uptake in C57Bl/6 mouse serum at 20 mg/kg/day, ip qd for 7 days measured at 24 hrs post last dose by UHPLC/MS analysis
- Type: ADME, organism-based
- conditions: read-out: Drug uptake
property: concentration at 24 h

Looking up Cl.Cl.Cl.Cl.c1cc(NCCCCN2CCOCC2)c2ccc3c(ccc4c(NCCN5CCOCC5)ccnc43)c2n1 , I found its concentration at 24 h recorded as 350 to 1200 nM

====

What LC50 was measured for each of the following?
- measurement-description: Toxicity in 6 hrs post fertilized zebrafish embryo assessed as mortality up to 120 hrs post fertilization
- Parameters: species or system Danio rerio
- conditions: in vivo
Answers are plain numbers, in µM.

Cl.Cl.Cl.Cl.c1cc(NCCCCN2CCOCC2)c2ccc3c(ccc4c(NCCN5CCOCC5)ccnc43)c2n1 :: 18.9

Turning to the following compound.
Looking up Cl.Cl.Cl.Cl.c1cc(NCCN2CCOCC2)c2ccc3c(ccc4c(NCCN5CCOCC5)ccnc43)c2n1 , I found its LC50 recorded as 72.1
